Measured Target: T1, SNAP-GAL2R R184^5.35A (human, UniProt O43603 1-387, R184^5.35A, Lumi4-Tb on the SNAP tag)
T1 construct: also called R184A; source: HEK293, transfected, on cells; not shown: SNAP tag, N-terminal, kept
T1 sequence (looked up): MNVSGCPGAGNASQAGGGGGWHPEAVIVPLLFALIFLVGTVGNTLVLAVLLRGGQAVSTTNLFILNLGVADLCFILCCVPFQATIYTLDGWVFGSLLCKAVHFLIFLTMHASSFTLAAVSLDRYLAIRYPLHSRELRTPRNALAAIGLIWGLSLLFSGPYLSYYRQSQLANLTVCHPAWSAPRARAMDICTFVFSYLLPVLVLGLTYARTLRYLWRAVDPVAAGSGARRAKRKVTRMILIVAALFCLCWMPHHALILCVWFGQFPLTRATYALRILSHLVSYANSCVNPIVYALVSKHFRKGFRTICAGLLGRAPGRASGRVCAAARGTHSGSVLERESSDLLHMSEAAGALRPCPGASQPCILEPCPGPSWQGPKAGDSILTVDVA
Experiment Summary: AlphaScreen or HTRF; saturation binding: HEK293 cells transfected with SNAP-tagged receptor (WT or mutant) and labelled with SNAP-Lumi4-Tb, incubated with increasing concentrations of galanin-A2 in the presence or absence of 100 uM unlabeled galanin, 1 h at room temperature; HTRF ratio 665 nm/620 nm
Measurement Parameters: one partner purified
Measured Endpoint: pKd
pKd here is simply -log10 of the concentration when that concentration is written in mol/L.

Request: Which pKd value is on record for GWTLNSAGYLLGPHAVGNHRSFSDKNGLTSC (dye A2 on the additional C-terminal cysteine, numbers count on: the mature protein; additional cysteine at the C-terminal end of the peptide, carries the dye A2; source: synthetic peptide (synthesized by Vazyme, China)) ?
Result: 6.54
